ASSAY NAME: chemical genetic growth profiling, strain panel (AID 1159580);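 note: tested at 20 µM; growth read once vehicle control cultures reached saturation at 30 °C; 1 = growth at the plate median or of vehicle wells; lower values mean less growth of the strain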
RECORDED CONDITIONS: S. cerevisiae deletion strains, growth OD, locus YNL067W, strain RPL9B, stronger effect = lower value
Hit rate of the full screen: of about 5,500 compounds, about 2,000 (36%) were called active. Roughly 18% stayed inconclusive and do not appear here. The list shows a part of the results.

| MOLECULE | normalized growth |
| --- | --- |
| COC(=O)C[C@H]1C(C)(C)[C@@H](O)[C@@H]2CC3=C4CC(O)O[C@@H](c5ccoc5)[C@]4(C)CCC3[C@@]1(C)C2=O (some centres undefined) | 0.967 |
| O=c1c(O)cc([C@H]2Oc3cc(O)cc(O)c3C[C@H]2O)cc2c([C@H]3Oc4cc(O)cc(O)c4C[C@H]3O)cc(O)c(O)c12 | 1.02 |
| CC1(C)C(=O)CC[C@@]2(C)C1C[C@@H](O)[C@@]1(C)C3=CC(=O)O[C@@H](c4ccoc4)[C@]3(C)CCC21 (some centres undefined) | 1.04 |
| CC1Cc2ccccc2N1NC(=O)c1ccc(Cl)c(S(N)(=O)=O)c1 (centres undefined) | 1.01 |
| COC(=O)C(N)CS (centres undefined) | 0.968 |
| C[C@@H]1CC[C@@]23CCC4(C)[C@@](C=CC5[C@@]6(C)CC[C@H](O)C(C)(C)C6CC[C@]54C)(OC2=O)C3[C@H]1C (some centres undefined) | 1.01 |
| CC1=CC(=O)C(C(C)C)=CC1=O | 0.925 |
| COc1cc(C(=O)O)cc(OC)c1OC | 1.03 |
| COc1cc(C(=O)N2CCOCC2)cc(OC)c1OC | 1 |

---

ASSAY NAME: chemical genetic growth profiling, strain panel (AID 1159580);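 note: tested at 20 µM; growth read once vehicle control cultures reached saturation at 30 °C; 1 = growth at the plate median or of vehicle wells; lower values mean less growth of the strain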
RECORDED CONDITIONS: S. cerevisiae deletion strains, growth OD, strain wtn01, stronger effect = lower value
In all, about 5,500 compounds went through this assay and about 2,000 (36%) were called active. Not shown: some 18% with an inconclusive outcome. The list shows a part of the results.
Strictly below 1 in normalized growth: criterion met. Otherwise: criterion not met.

| COMPOUND | CLASSIFICATION |
| --- | --- |
| O=c1c(O)cccc2c(C3Oc4cc(O)cc(O)c4CC3O)cc(O)c(O)c12 (stereo not given) | criterion met |
| O=c1c(O)cc([C@H]2Oc3cc(O)cc(O)c3C[C@H]2O)cc2c([C@H]3Oc4cc(O)cc(O)c4C[C@H]3O)cc(O)c(O)c12 | criterion not met |
| Cc1ccc(C(C)C)c(O)c1C(=O)O | criterion met |

---

The entries below are paired with their reported normalized growth.
ASSAY NAME: chemical genetic growth profiling, strain panel (AID 1159580);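 note: tested at 20 µM; growth read once vehicle control cultures reached saturation at 30 °C; 1 = growth at the plate median or of vehicle wells; lower values mean less growth of the strain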
RECORDED CONDITIONS: S. cerevisiae deletion strains, growth OD, locus YER016W, strain bim1, stronger effect = lower value
Out of some 5,500 compounds screened, about 2,000 (36%) were called active. Another 18% or so got no clear call; they are omitted. The list shows a part of the results.

| MOLECULE | normalized growth |
| --- | --- |
| CC12CCC(=O)C=C1CCc1ccccc12 (stereo not given) | 0.972 |
| COc1ccc(-c2cc(=O)c3c(OC)c(OC)c(OC)c(OC)c3o2)cc1OC | 0.993 |
| COc1ccc(-c2cc(=O)c3c(O)c(OC)c(O[C@H]4O[C@H](CO[C@@H]5O[C@@H](C)[C@H](O)[C@@H](O)[C@H]5O)[C@@H](O)[C@H](O)[C@H]4O)cc3o2)cc1 | 0.992 |
| COc1cccc2c1CCC1=CC(=O)CC[C@@]12C | 1 |
| COP(N)(=O)SC (stereo not given) | 1.01 |
